Provenance of the data: patent US20250236627A1

Target: endogenous human glucagon-like peptide 1 receptor (GLP-1R) (Homo sapiens, UniProt P43220)
Construct: endogenous human glucagon-like peptide 1 receptor (GLP-1R) in a pancreatic insulinoma cell line
Sequence (P43220 24-463): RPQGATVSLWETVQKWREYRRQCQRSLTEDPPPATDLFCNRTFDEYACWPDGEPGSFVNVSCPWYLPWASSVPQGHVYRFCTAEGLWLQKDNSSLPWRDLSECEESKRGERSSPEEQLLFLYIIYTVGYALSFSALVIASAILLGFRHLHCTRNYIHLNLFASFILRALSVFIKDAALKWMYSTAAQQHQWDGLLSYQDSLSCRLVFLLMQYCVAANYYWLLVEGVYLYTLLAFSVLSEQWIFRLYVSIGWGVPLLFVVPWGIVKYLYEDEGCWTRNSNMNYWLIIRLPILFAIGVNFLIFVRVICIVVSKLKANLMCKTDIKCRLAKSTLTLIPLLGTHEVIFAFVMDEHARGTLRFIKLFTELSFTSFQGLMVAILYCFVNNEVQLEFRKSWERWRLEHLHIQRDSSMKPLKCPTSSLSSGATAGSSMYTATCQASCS
Test: EndoC cAMP Accumulation Assay
Settings: EndoC-βH1 human pancreatic β cell line; HTRF cAMP assay
Text: EndoC cAMP Accumulation Assay A HTRF (Homogeneous Time-Resolved Fluorescence) cAMP assay (cAMP Gs dynamic kit; CisoBio Cat #62AM4PEJ) was used to identify agonists of the endogenous human glucagon-like peptide 1 receptor (GLP-1R) in a pancreatic insulinoma cell line (EndoC-βH1). […] EndoC-βH1 cells have detectable GLP-1R mRNA as detected by qPCR^1. […] The detection kit is intended for the direct quantitative determination of cAMP. […]
pEC50: −log10 of the molar value.
Please note: condition met applies when pEC50 is 7 or greater, and condition not met applies otherwise.

Exam item: decide whether the reported pEC50 for C[C@]1(c2ccc(Cl)cc2F)Oc2cccc(N3CCN(Cc4nc5ccc(C(=O)O)cc5n4C[C@@H]4CCO4)[C@H]4COC[C@H]43)c2O1 (single isomer, unassigned) [Example 6a] is at least 7. condition met

// next record Cc1nccn1CCn1c(CN2CCN(c3cccc4c3O[C@@](C)(c3ccc(Cl)cc3F)O4)[C@@H]3COC[C@@H]32)nc2c(Cl)cc(C(=O)O)cc21 (single isomer, unassigned) [Example 18] condition met

// next record C[C@]1(c2ccc(Cl)cn2)Oc2cccc(N3CCN(Cc4nc5ccc(C(=O)O)cc5n4C[C@@H]4CCO4)[C@H]4COC[C@H]43)c2O1 (relative stereo) [Example 5a] condition not met

// next record C[C@]1(c2ccc(Cl)cn2)Oc2cccc(N3CCN(Cc4nc5c(Cl)cc(C(=O)O)cc5n4C[C@@H]4CCCO4)[C@H]4COC[C@H]43)c2O1 (single isomer, unassigned) [Example 4a] condition met

// next record C[C@]1(c2ccc(Cl)cc2F)Oc2cccc(N3CCN(Cc4nc5c(F)cc(C(=O)O)cc5n4C[C@@H]4CCO4)[C@H]4COC[C@H]43)c2O1 (single isomer, unassigned) [Example 16c] condition not met

// next record C[C@]1(c2ccc(Cl)cn2)Oc2cccc(N3CCN(Cc4nc5ccc(C(=O)O)cc5n4C[C@@H]4CCO4)[C@H]4COC[C@H]43)c2O1 (single isomer, unassigned) [Example 5b] condition met

// next record C[C@]1(c2ccc(Cl)cn2)Oc2cccc(N3CCN(Cc4nc5c(F)cc(C(=O)O)cc5n4CCn4cccn4)[C@H]4COC[C@H]43)c2O1 (single isomer, unassigned) [Example 11] condition met

// next record C[C@]1(c2ccc(Cl)cn2)Oc2cccc(N3CCN(Cc4nc5c(Cl)cc(C(=O)O)cc5n4CC4(CC#N)CC4)[C@H]4COC[C@H]43)c2O1 (single isomer, unassigned) [Example 24] condition met

// next record C[C@]1(c2ccc(Cl)cn2)Oc2cccc(N3CCN(Cc4nc5c(F)cc(C(=O)O)cc5n4C[C@@H]4CCO4)[C@H]4COC[C@H]43)c2O1 (single isomer, unassigned) [Example 9c] condition not met

// next record C[C@]1(c2ccc(Cl)cn2)Oc2cccc(N3CCN(Cc4nc5c(Cl)cc(C(=O)O)cc5n4C[C@@H]4CCO4)[C@H]4COC[C@H]43)c2O1 (single isomer, unassigned) [Example 14c] condition not met

// next record C[C@]1(c2ccc(Cl)cn2)Oc2cccc(N3CCN(Cc4nc5c(Cl)cc(C(=O)O)cc5n4CC4(C#N)CC4)[C@H]4COC[C@H]43)c2O1 (single isomer, unassigned) [Example 23b] condition not met
